Tested on: CAKI-1
Experiment: NCI tumour cell line growth inhibition, 48 h
Activity calls are given as the source filed them. No stated cut-off is given here; in the data, active = GI50 up to about 1.1 µM and inactive = higher.
Please reply with one of these outcomes: YES for active, NO for inactive

Worked examples follow.
Please state the recorded outcome for this compound: O=C1C=C(Nc2ccccc2C(=O)CC(=O)C(=O)Nc2cccc(C(F)(F)F)c2)c2ccccc2C1=O
NO

And for Cn1nc(-c2ccccc2)c(C(=O)/C=C/c2ccc(F)cc2)c(N2CCOCC2)c1=O ?
NO

Now this one: N=c1oc2cc(O)ccc2cc1C(=O)Nc1ccccn1
NO

Entry to check: CC(=O)c1ccc(NC(=O)/C(CC(=O)c2sc(-c3cccnc3)nc2C)=N/NC(N)=O)cc1
NO

Check O=C(N[C@H]1CC2(C=C(I)C(=O)C(I)=C2)OC1=O)OCc1ccccc1 too.
NO

Others:
Called result for Cc1ccccc1NC(=O)/C(=N/NC(=O)CC#N)C1C(=O)N(c2ccccc2)N=C1N (stereo not given)
NO

Try this compound too: COc1cc(C2c3cc4c(cc3OC(NCCO)C2C)OCO4)cc(OC)c1OC (stereo not given)
YES

Can you handle COc1cc([C@@H]2c3cc4c(cc3[C@H](OC3OC5COC(C(C)C)OC5C(O)C3O)C3COC(=O)[C@@H]32)OCO4)cc(OC)c1OC (stereo not given in full) next?
NO

Subsequent entry: Cc1cccc(NC(=O)CC(=O)N2N=C(N(CCC#N)c3ccc(Cl)cc3)CC2c2ccccc2)c1 (stereo not given)
NO

Param item: COc1cc(C2C3=C(COC3=O)OC(C)(C)Oc3cc4c(cc32)OCO4)cc(OC)c1OC (stereo not given)
NO

Entry to check: COc1ccc2nc(-c3ccc(O)cc3)sc2c1
NO

Please do the same for CC(CC[C@@H](C)C1CCC2[C@@H]3CC(O)C4CC(O)[C@@H](O)C[C@]4(C)C3CC[C@@]21C)C(C)(C)C (stereo not given in full) as well.
NO

Try the compound NC1=NC(=O)/C(=C/c2ccccc2[N+](=O)[O-])C(N)=N1
NO

Follow-up item: Cc1ccc2c(=O)c(C(=O)NNC(=S)NC3CCCCC3)c[nH]c2n1
NO

Consider next the compound CC(C)(C)c1ccc(CN2CCN(C(c3ccccc3)c3ccc(Cl)cc3)CC2)cc1 (stereo not given) in the same way.
NO

Now consider CC1=CC=CC(C)(C)CC1(O[Si](C)(C)C)C(F)(F)F (stereo not given) .
NO
